target.of.assay: glucosylceramide synthase (GCS) (Homo sapiens, UniProt Q16739)
Construct: The obtained supernatant was used
Sequence (Q16739 whole entry): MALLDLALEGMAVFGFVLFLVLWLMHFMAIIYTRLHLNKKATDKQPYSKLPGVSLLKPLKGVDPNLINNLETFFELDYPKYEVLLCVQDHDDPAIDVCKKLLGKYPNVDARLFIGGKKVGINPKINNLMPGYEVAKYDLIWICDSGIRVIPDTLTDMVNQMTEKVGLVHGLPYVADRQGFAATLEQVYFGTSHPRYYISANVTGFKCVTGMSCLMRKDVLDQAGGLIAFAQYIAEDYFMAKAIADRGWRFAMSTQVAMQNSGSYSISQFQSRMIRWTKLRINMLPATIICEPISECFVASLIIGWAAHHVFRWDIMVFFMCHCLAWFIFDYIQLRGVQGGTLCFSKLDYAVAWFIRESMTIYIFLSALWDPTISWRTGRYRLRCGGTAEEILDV
assay.details: GCS enzyme inhibition assay (A549 cell lysate, NBD C6-ceramide, HPLC fluorescence)
measurement.parameters: inhibitory activity against GCS, 37° C., 90 minutes
// assign Criterion met if IC50 falls strictly below 0.9 nM, else Criterion not met (ties count as Criterion not met)

- molecule: "O=C(NC1CCOc2cc(-c3cccc(OC(F)(F)F)c3)ccc21)O[C@@H]1CN2CCC1CC2 (stereo partly drawn)"
  target.of.assay: "glucosylceramide synthase (GCS) (Homo sapiens, UniProt Q16739)"
  discrete.label: "Criterion met"
- molecule: "COc1cc2c(cc1-c1ccc(C(C)(C)C)cc1)OCC(C)(C)C2NC(=O)O[C@@H]1CN2CCC1CC2 (stereo partly drawn)"
  target.of.assay: "glucosylceramide synthase (GCS) (Homo sapiens, UniProt Q16739)"
  discrete.label: "Criterion met"
- molecule: "CC1(C)COc2cc(/C=C/c3ccc(F)cc3F)ccc2C1NC(=O)O[C@@H]1CN2CCC1CC2 (stereo partly drawn)"
  target.of.assay: "glucosylceramide synthase (GCS) (Homo sapiens, UniProt Q16739)"
  discrete.label: "Criterion not met"
- molecule: "CCOc1ccc(-c2ccc3c(c2)OCCC3NC(=O)O[C@@H]2CN3CCC2CC3)cc1 (stereo partly drawn)"
  target.of.assay: "glucosylceramide synthase (GCS) (Homo sapiens, UniProt Q16739)"
  discrete.label: "Criterion not met"
- molecule: "CC1(C)COc2cc(-c3ccc(OCC4CC4)nc3)ccc2C1NC(=O)O[C@@H]1CN2CCC1CC2 (stereo partly drawn)"
  target.of.assay: "glucosylceramide synthase (GCS) (Homo sapiens, UniProt Q16739)"
  discrete.label: "Criterion met"
- molecule: "CC1(C)COc2cc(-c3cc(Cl)cc(C(F)(F)F)c3)ccc2C1NC(=O)O[C@@H]1CN2CCC1CC2 (stereo partly drawn)"
  target.of.assay: "glucosylceramide synthase (GCS) (Homo sapiens, UniProt Q16739)"
  discrete.label: "Criterion not met"
- molecule: "CC1(C)CC(NC(=O)O[C@@H]2CN3CCC2CC3)c2ccc(-c3cccc(C(F)(F)F)c3)cc2O1 (stereo partly drawn)"
  target.of.assay: "glucosylceramide synthase (GCS) (Homo sapiens, UniProt Q16739)"
  discrete.label: "Criterion not met"
- molecule: "O=C(NC1CCOc2cc(-c3ccc4c(c3)CCCO4)ccc21)O[C@@H]1CN2CCC1CC2 (stereo partly drawn)"
  target.of.assay: "glucosylceramide synthase (GCS) (Homo sapiens, UniProt Q16739)"
  discrete.label: "Criterion met"
- molecule: "O=C(NC1CCOc2cc(-c3cccc4cc[nH]c34)ccc21)O[C@@H]1CN2CCC1CC2 (stereo partly drawn)"
  target.of.assay: "glucosylceramide synthase (GCS) (Homo sapiens, UniProt Q16739)"
  discrete.label: "Criterion not met"
- molecule: "O=C(NC1CCOc2cc(-c3ccc(C4CC4)cc3)ccc21)O[C@@H]1CN2CCC1CC2 (stereo partly drawn)"
  target.of.assay: "glucosylceramide synthase (GCS) (Homo sapiens, UniProt Q16739)"
  discrete.label: "Criterion not met"
- molecule: "CC1(C)COc2cc(-c3cc(OC(F)(F)F)ccc3Cl)ccc2C1NC(=O)O[C@@H]1CN2CCC1CC2 (stereo partly drawn)"
  target.of.assay: "glucosylceramide synthase (GCS) (Homo sapiens, UniProt Q16739)"
  discrete.label: "Criterion met"
- molecule: "CN1C(=O)COc2ccc(-c3ccc4c(c3)OCCC4NC(=O)O[C@@H]3CN4CCC3CC4)cc21 (stereo partly drawn)"
  target.of.assay: "glucosylceramide synthase (GCS) (Homo sapiens, UniProt Q16739)"
  discrete.label: "Criterion not met"
- molecule: "CC(C)Oc1ccc(F)c(-c2ccc3c(c2)OCC(C)(C)C3NC(=O)O[C@@H]2CN3CCC2CC3)c1 (stereo partly drawn)"
  target.of.assay: "glucosylceramide synthase (GCS) (Homo sapiens, UniProt Q16739)"
  discrete.label: "Criterion met"
- molecule: "CCc1ccc(/C=C/c2ccc3c(c2)OCC(C)(C)C3NC(=O)O[C@@H]2CN3CCC2CC3)cc1 (stereo partly drawn)"
  target.of.assay: "glucosylceramide synthase (GCS) (Homo sapiens, UniProt Q16739)"
  discrete.label: "Criterion met"
- molecule: "CC1(C)COc2cc(-c3ccc(C4CC4)nc3)ccc2C1NC(=O)O[C@@H]1CN2CCC1CC2 (stereo partly drawn)"
  target.of.assay: "glucosylceramide synthase (GCS) (Homo sapiens, UniProt Q16739)"
  discrete.label: "Criterion met"
